- System: Escherichia coli
- ASSAY_REMARKS: Antibacterial activity against Escherichia coli ATCC 25922 (CO-ADD:GN_001); MIC in CAMBH media using NBS plates, by Resazurin F(560/590)
- Format: functional
- MEASUREMENT_CONDITIONS: Concentration 20 uM, ASSAY_TEST Inhibition of Bacterial Growth, detection method Resazurin, Fluorescence (ex560/em590), MEDIA CAMHB, plate type 384well, CORNING #3640, time 18 hr
PARAMETER: Inhibition

Q: Any idea what Inhibition was measured for `c1ccc(-c2nnc(-c3ccccn3)s2)nc1` ?
Result: 9.86%

Q: Which value of Inhibition has been reported for `Oc1ccc(Cl)nn1` in the records?
Result: 4.23%

Q: Consider the compound `Oc1ccc(Cc2ccc(Cl)cc2)c(O)c1` and give its measured Inhibition.
Result: 10.87%

Q: Look at this compound and give its reported Inhibition. C#CCOCC1CN(c2ccccc2)C(=O)O1 (configuration not stated)
Result: 6.4%

Q: GET /values?readout=Inhibition&item= `CN1C(=C=Cc2cc(I)c(O)c(I)c2)C(C)(C)c2ccccc21`
Result: 10.92%

Q: Suppose we examine the compound `Sc1ncc2cnccn12` ; what Inhibition value has been reported?
Result: 10.26%

Q: Would you kindly share the measured Inhibition for `Cc1ccc(Cl)cc1NC(=O)N(C)CCO` ?
Result: -9.79%

----------
- Test system: Klebsiella pneumoniae
- MEASUREMENT_CONDITIONS: Concentration 20 uM; ASSAY_TEST Inhibition of Bacterial Growth; detection method Absorption (OD600); MEDIA CAMHB; plate type 384well; NBS; CORNING #3640; time 18 hr
- Description: Antibacterial activity against Klebsiella pneumoniae MDR ATCC 70063 (CO-ADD:GN_003); MIC in CAMBH media using NBS plates, by OD(600)
Measured potencies and affinities stand elsewhere.
PARAMETER: Inhibition (%)
Quick reminder: number only, in %, skip the unit.

Q: Fill blank: measured Inhibition of the compound `CC1=CC(=O)Nc2cncnc2N1` is ____.
Result: 13.83

Q: Can you look up the measured Inhibition of Cn1c(=O)c2c(ncn2CCOC(=O)C(C)(C)Oc2ccc(Cl)cc2)n(C)c1=O [THEOFIBRATE] for me?
Result: 11.96

Q: Could you share which Inhibition value was measured for CNC(=O)OCN1C(=O)C2CC=CCC2C1=O (stereo unspecified) ?
Result: 2.19

Q: Which Inhibition value belongs to `CC(C)(C(N)=O)c1ccccc1` ?
Result: 17.26

Q: Any idea what its Inhibition is? The compound is `NC(=O)c1ccccc1OCC(=O)Nc1ccc(Cl)c(Cl)c1`
Result: 9.46

Q: So what's the measured Inhibition for this one? `Nc1ccc(C(=O)Nc2cccc(N)c2)cc1`
Result: 4.23

Q: Entry `Nc1ccc(NC(=O)Nc2ccc(N)cc2)cc1` has what Inhibition?
Result: 0.94

Q: GET /values?readout=Inhibition&item= `CCCCc1c(C)nc(S)nc1O`
Result: 7.26

Q: Look at this compound and give its reported Inhibition. `CCOc1ccc(NC(=S)NC(=O)c2ccco2)cc1`
Result: 5.03

Q: Reported Inhibition, compound `CC1(C)N=C(N)N=C(N)N1c1ccc(OCCCOc2ccccc2)c(Cl)c1.CCS(=O)(=O)O` : ____
Result: 12.4

Q: Which Inhibition value belongs to `COc1ccc([N+](=O)[O-])cc1NC(=O)N(C)Cc1ccco1` ?
Result: 14.11

Q: Which Inhibition is listed for `CN1CCN(C(=O)Nc2ccc([N+](=O)[O-])cc2)CC1` ?
Result: 6.75

Q: Looking for the measured Inhibition of CC(C1=C(CCN(C)C)Cc2ccccc21)c1ccccn1.O=C(O)/C=C\C(=O)O (stereo unspecified) [DIMETHINDENE MALEATE] , can you help?
Result: 18.33

Q: Can you share its Inhibition? I mean this compound: `CCOC(=O)Nc1csnn1`
Result: 14.72

Q: If you can, please state the reported Inhibition value of `CSc1cccc(NC(=O)N2CCN(C)CC2)c1` .
Result: 6.8

Q: Inhibition lookup needed for `Clc1nc(NCCc2ccccc2)c2c[nH]nc2n1` , thanks.
Result: 13.65

Q: Data request, read-out Inhibition, for `C=CCSC(CC)(CC)C(N)=O`
Result: 10.13

Q: If you can, please state the reported Inhibition value of `CCOc1ccc(NC(=O)c2cc3ccccc3cc2O)cc1` .
Result: 2.5

Q: Fill blank: measured Inhibition of the compound `c1ccc(CSc2nc3c[nH]cnc-3n2)cc1` is ____.
Result: 8.84

Q: Using the record for `C[C@@H]1C[C@H]2OC(=O)[C@@]3(C)CCC[C@@](C)([C@@H]23)[C@@]1(O)CCc1ccoc1` , report its Inhibition.
Result: 4.6

Q: Dear colleague, I am looking for the recorded Inhibition of the following compound: `Sc1nccn1-c1c(Cl)cccc1Cl`
Result: 7.58

Q: Look up Inhibition: `Cc1nc2c(O)cccc2cc1CO`
Result: 7.86

Q: I have this compound here, `COc1ccc(N/C=C2\C(=O)CCc3c2oc2cc(Cl)c(O)c(Cl)c32)cc1` , and I need its recorded Inhibition.
Result: 4.7

Q: Inhibition for `CCCc1nc2c(=O)n(C)c(=O)n(C)c2[nH]1` ?
Result: 14.55

Q: Data request, read-out Inhibition, for `CCCNC(=O)c1ccc(Cl)cc1Cl`
Result: 8.05

Q: What does the record list as Inhibition for CC(=O)OC1C=CCC2C(=O)c3cccc(O)c3C(O)C12 (stereo unspecified) ?
Result: 7.69

Q: Endpoint output: Inhibition of `Cc1ccc(-n2nnnc2-c2cccnc2)cc1` . Value?
Result: 4.8

Q: Record request: Inhibition value, item `O=C(O)CSc1ccc(NC(=O)Nc2ccccc2F)cc1`
Result: 17.8

Q: For the compound `Cc1ccc2c(c1)sc1nncn12` , what Inhibition is on record?
Result: 5.69

Q: Looking for the measured Inhibition of `Cc1c(COC(=O)NC(C)C)c(COC(=O)NC(C)C)c2n1CS(=O)(=O)C2` , can you help?
Result: 15.71

Q: Entry `Cc1nc(Br)c(Br)c(C)c1Br` : reported Inhibition = ?
Result: 11.41

Q: Could you tell me which Inhibition is on file for `COc1cc(C(=O)c2cocc2C(=O)c2ccc3c(c2)OCO3)cc(OC)c1OC` ?
Result: 6.01

Q: Using the record for C#CCOCC1CN(c2ccccc2)C(=O)O1 (stereo unspecified) , report its Inhibition.
Result: 9.96

Q: State the recorded Inhibition for this entry: COC1=CC(C)C2CC3OC(O)CC4C(C)=C(OC)C(=O)C(C2(C)C1=O)C34C (stereo unspecified)
Result: 9.99

Q: // returns reported Inhibition for input `CC1=CC(=C2C=CC(=O)C=C2)C=C(C)N1C`
Result: -4.58

Q: Fill in: Inhibition of `NC(=O)c1ccccc1NC(=O)c1ccccc1Cl` is ___
Result: 6.89

Q: Need Inhibition, item O=C1CCC(NC(=O)c2ccccc2)C(=O)N1 (stereo unspecified)
Result: 5.68

Q: Would you mind telling me what Inhibition value was observed for `CC1(C)CCSC(/C=C/c2ccccc2)=N1` ?
Result: 18.54

Q: Which Inhibition value is on record for `O=c1c2ccccc2ncn1-c1ccc(Cl)cc1` ?
Result: 4.73

Q: Would you kindly share the measured Inhibition for `Cc1cc(S)nc(S)n1` ?
Result: 8.54

Q: I would be grateful if you could share the reported Inhibition for `CCOC(=O)Nc1ccc2nc(N3CCCCCC3)sc2c1` .
Result: 9.37

Q: Would you mind telling me what Inhibition value was observed for `Nc1ccccc1Sc1cc(Cl)nnc1Cl` ?
Result: 13.76

Q: Consider the compound shown here: `O=C(Nc1cc(-c2ccccc2)[nH]n1)c1ccc(Cl)cc1` What is its recorded Inhibition?
Result: 6.21

Q: Bench note: what Inhibition did C(COC1CC2CC1C1C2CC2OC21)OC1CC2CC1C1C2CC2OC21 (stereo unspecified) show?
Result: 11.14

Q: Inhibition lookup needed for `COc1ccc(NC(=O)N2CCN(C(=O)Nc3ccc(OC)cc3)CC2)cc1` , thanks.
Result: 5.35

Q: Quick one: Inhibition of `Cc1nc(N)nc(Nc2ccc(C#N)cc2)c1Br` ?
Result: 5.37

Q: Which value of Inhibition has been reported for `O=C1c2ccccc2C2=C3C(O)=NN=C3CCN12` in the records?
Result: 9.82

Q: What does the record list as Inhibition for O=C1C2C3C=CC(O3)C2C(=O)N1Nc1ccccc1 (stereo unspecified) ?
Result: 8.39

Q: Give its Inhibition value. Item: `O=C(Nc1cccc([N+](=O)[O-])c1)c1cc2ccccc2cc1O`
Result: 3.58

Q: Return reported Inhibition; argument: `c1ccc2c(c1)nnn2-c1ccncc1`
Result: 4.04

Q: Quick one: Inhibition for `CCOC(=O)c1c(N)ssc1=S` ?
Result: 23.27

----------
- System: Candida albicans
- MEASUREMENT_CONDITIONS: 20 µM
- Description: Antifungal activity against Candida albicans ATCC 90028 (CO-ADD:FG_001); MIC in YNB media using NBS plates, by OD630
Results with a measured potency or affinity are listed apart.
For each entry below, report its Inhibition value.
The reply should be a number in %, with the unit left off.

Q: // lookup Inhibition for `Cc1cc(=O)[nH]c(N)n1`
Result: 3.77

Q: Entry `CCCCSc1cc(C)nc(N)n1` has what Inhibition?
Result: 1.09

Q: Recorded Inhibition for `[O-]/[N+](=C\c1ccccc1)CC1(O)CCCCC1` , please?
Result: 5.54

Q: Requested field: Inhibition. Item: `CCOC(=O)N1CCN(Cc2c(O)ccc3ccccc23)CC1`
Result: 3.24

Q: I'd like to know its Inhibition. The compound in question is `NC(=O)c1nnsc1-c1ccc(-c2snnc2C(N)=O)cc1`
Result: -1.56

Q: Recorded Inhibition for COc1cccc(OCC(O)CN2CCN(c3ccccc3)CC2)c1 (stereo unspecified) , please?
Result: -2.19

Q: Entry `CC(C)C(=O)c1ccc(O)c(O)c1` : reported Inhibition = ?
Result: 3.31

Q: Fill in: Inhibition of `Cn1ncc2c(NCc3ccccc3)ncnc21` is ___
Result: -0.05

Q: Field request: Inhibition | item: `CCc1noc2cc(-c3ccccc3)n(C)c(=O)c12`
Result: 1.75

Q: If you can, please state the reported Inhibition value of `C=CCN(CC=C)C(=O)Nc1cc(OC)ccc1OC` .
Result: 3.21

Q: Inhibition lookup needed for CC(=O)c1c(O)c(C)c(O)c2c1OC1=CC(=O)/C(=C(/C)N)C(=O)C12C (stereo unspecified) , thanks.
Result: 6.96

Q: Using the record for `CC(=O)[C@H]1CC[C@H]2[C@@H]3CCC4=CC(=O)CC[C@]4(C)[C@@]3(F)[C@@H](O)C[C@]12C` , report its Inhibition.
Result: 0.8

Q: Give its Inhibition value. Item: Oc1c(Cl)cc(Cl)cc1C1Nc2ccccc2-n2cccc21 (stereo unspecified)
Result: 1.7

Q: What measured Inhibition goes with `Clc1ccc(Nc2nnc(-c3ccc4c(c3)OCO4)o2)cc1` ?
Result: 4.12

Q: Request the reported Inhibition associated with `CCCCOc1nc2c(c(=O)n(C)c(=O)n2C)n1C`
Result: 11

Q: Can you share its Inhibition? I mean this compound: CCOC(=O)C(C)c1c(C(=O)c2ccc(C)nc2)c2ccccc2n1C (stereo unspecified)
Result: 0.68

Q: Any idea what its Inhibition is? The compound is `CCOc1ccc2sc(NS(=O)(=O)c3ccc(N)cc3)nc2c1`
Result: 4

Q: Reported Inhibition for `CCCCCc1cc(O)nc(S)n1` : what is it?
Result: 1.05

Q: Query (compound): `Cc1[nH]c(=O)n(C(C)C)c(=O)c1Br` ; field requested: Inhibition
Result: 0.37

Q: Dear colleague, I am looking for the recorded Inhibition of the following compound: `O=C1CSC(=S)N1/N=C/c1c[nH]c2ccc(Br)cc12`
Result: 19.6

Q: Any idea what Inhibition was measured for `CN(C)S(=O)(=O)Nc1cccc(Br)c1` ?
Result: 4.88

Q: Could you tell me which Inhibition is on file for `CSc1nc2cc(S(=O)(=O)N3CCCCC3)ccc2s1` ?
Result: 7.84

Q: Please give the measured Inhibition for this compound: `CC(C)(c1cc(Cl)c(O)c(CN2CCOCC2)c1)c1cc(Cl)c(O)c(CN2CCOCC2)c1`
Result: -1.62

Q: Which Inhibition is listed for `Nc1ccccc1-c1nc2cnccc2[nH]1` ?
Result: -2.69

Q: Sample `N#C/C(=C\c1ccc[nH]1)C(=O)c1ccccc1` — what was its Inhibition?
Result: 10.3

Q: Find the recorded Inhibition belonging to `c1cc(-n2nnc3cnccc32)ccn1` and report it.
Result: -1.34
